Data origin: PubChem BioAssay (NCI)

# System: SNB-19 CNS
# method: NCI-60 one-dose screen, 48 h
# condition context: 10 µM unless noted
The panel holds about 83,000 compounds, 20% with a hit somewhere; the sample as a whole holds those more often. Activity calls are given as the source filed them. How the source made its calls: active means growth percent below 10; inactive means the rest.
In this exercise, the only acceptable responses are active, inactive

Exam item: Assay result, entry COc1ccccc1N1C(=O)/C(=C/C2=Cc3ccccc3OC2)SC1=S — outcome?
Marked response: inactive

Exam item: Okay, and S=C(Cc1ccc2c(c1)CCCC2)N1CCOCC1 ?
Marked response: inactive

Exam item: Okay, and Cc1cc(C(=O)c2ccccc2)c(C)c2c1[nH]c1ccc(Cl)cc12 ?
Marked response: inactive

Exam item: Okay, and COc1ccc(N2CCN(c3nc(-c4cc(OC)c(OC)c(OC)c4)nc4ccccc34)CC2)cc1 ?
Marked response: inactive

Exam item: Okay, and O=C(CSc1nnc(-c2ccc(NC(=O)c3cccnc3)cc2)o1)Nc1cccc(Br)c1 ?
Marked response: inactive

Exam item: Okay, and Clc1cccc(Cl)c1/C=C/c1cc(/C=C/c2c(Cl)cccc2Cl)[nH]n1 ?
Marked response: inactive

Exam item: Okay, and C=C(C)[C@@H]1CC[C@]2(C(=O)NC3CCCCC3)CC[C@]3(C)[C@H](CC[C@@H]4[C@@]5(C)CCCNC(C)(C)[C@@H]5CC[C@]43C)[C@@H]12 ?
Marked response: inactive

Exam item: Okay, and COC1=CC(=O)C[C@@H](C)[C@]12Oc1c(Cl)c(OC)cc(OC)c1C2=O ?
Marked response: inactive

Exam item: Okay, and Cc1cc(/C=C\c2ccc3ccccc3[n+]2C)c(O)c2ncccc12 ?
Marked response: inactive

Exam item: Okay, and COc1ccc(OC)c2c1[nH]c(=O)c1c3ncccc3cn21 ?
Marked response: inactive

Exam item: Okay, and Cc1cc(NCc2cc(Nc3ccnc4cc(Cl)ccc34)ccc2F)nc(Cl)n1 ?
Marked response: inactive

Exam item: Okay, and NC[C@H](O)c1ccc(O)c(O)c1 ?
Marked response: inactive

Exam item: Okay, and O=C(Nc1ccc(Cl)cc1)Nc1ccc(Cl)c(C(F)(F)F)c1 ?
Marked response: inactive

Exam item: Okay, and CC1=C(SCCC(=O)OC(C[Se]C2=C(C)C(=O)c3ccccc3C2=O)C(=O)NCCCCCC(=O)OCc2ccccc2)C(=O)c2ccccc2C1=O (stereo not given) ?
Marked response: inactive

Exam item: Okay, and O=c1c2cc(F)ccc2sc2c(NCCCN3CCCC3)nc3ccccc3c12 ?
Marked response: inactive

Exam item: Okay, and COc1cccc(-c2nn(-c3ccccc3)cc2-c2ccnc(NCCCNC(=O)c3cccc(C(F)(F)F)c3)c2)c1 ?
Marked response: inactive

Exam item: Okay, and COc1ccc(C(=O)Nn2c(NCC(=O)N3c4ccccc4Sc4ccccc43)nnc2-c2ccc(O)cc2)cc1 ?
Marked response: inactive

Exam item: Okay, and OC(COc1ccccc1Cl)COc1ccccc1Cl ?
Marked response: inactive

Exam item: Okay, and COc1cccc2c1C(=O)c1c(O)c3c(c(O)c1C2=O)CC(O)(/C(C)=N/NC(=O)CCCCC(=O)N/N=C(\C)C1(O)Cc2c(O)c4c(c(O)c2C(OC2CC(N)C(O)C(C)O2)C1)C(=O)c1c(OC)cccc1C4=O)CC3OC1CC(N)C(O)C(C)O1 (stereo not given) ?
Marked response: active

Exam item: Okay, and CCN(CC)CCN1CC(O)=C(c2nc(-c3ccc(Cl)cc3)cs2)C1=N ?
Marked response: inactive

Exam item: Okay, and CNC(=O)c1cc(Oc2cccc3nc(Nc4ccc(F)c(Cl)c4)ccc23)ccn1 ?
Marked response: inactive

Exam item: Okay, and CC(C)C(NC(=O)C1(NC(=O)OCc2ccccc2)CCCC1)C(=O)O (stereo not given) ?
Marked response: inactive

Exam item: Okay, and NS(=O)(=O)c1cnccc1Oc1cccc2cccnc12 ?
Marked response: inactive

Exam item: Okay, and CCOC(=O)C/C(C)=N\NC(=O)c1ccncc1 ?
Marked response: inactive

Exam item: Okay, and CCN(CC)c1ccc2nc3c4ccccc4c(=NC(=O)c4ccccc4-c4c5ccc(N(CC)CC)cc5[o+]c5cc(N(CC)CC)ccc45)cc-3oc2c1 ?
Marked response: active

Exam item: Okay, and COc1ccc(-c2cc(-c3ccc(Nc4nc(Nc5ccc(Cl)cc5)nc(Nc5ccc(Cl)cc5)n4)cc3)nc(N)c2C#N)cc1 ?
Marked response: inactive

Exam item: Okay, and CC(=O)N1N=C(c2ccc(Nc3nc(Nc4ccc(F)cc4)nc(Nc4ccc(F)cc4)n3)cc2)CC1c1cccc([N+](=O)[O-])c1 (stereo not given) ?
Marked response: inactive

Exam item: Okay, and COc1cc(-c2nc(N3CCN(C)CC3)c3ccccc3n2)cc(OC)c1OC ?
Marked response: inactive

Exam item: Okay, and O=Cc1c[nH]c2ccc(-c3csc4ccccc34)cc12 ?
Marked response: inactive

Exam item: Okay, and CC(C)CC(NC(=O)CN(Cc1ccccc1)S(C)(=O)=O)C(=O)O (stereo not given) ?
Marked response: inactive

Exam item: Okay, and Clc1cccc(Cl)c1C(Nc1nc2ccccc2s1)Nc1nc2ccccc2s1 ?
Marked response: inactive

Exam item: Okay, and Cc1cc(=O)oc2c1ccc1oc(C#N)c(C)c12 ?
Marked response: inactive

Exam item: Okay, and CN(C)CCCn1c(=O)c2ccccc2c2ccccc21 ?
Marked response: inactive

Exam item: Okay, and C=CCOC1=CC(=O)c2ccccc2C1=O ?
Marked response: inactive

Exam item: Okay, and Cc1cc(NCCCCNc2ccnc3cc(Cl)ccc23)nc(Nc2ccc(C(=O)N3CCCC3)cc2)n1 ?
Marked response: inactive

Exam item: Okay, and O=C(Nc1ccc(Nc2ccncc2)cc1)c1ccc(C(=O)Nc2ccc(Nc3ccncc3)cc2)cc1 ?
Marked response: inactive

Exam item: Okay, and CN(C)c1ccc(-c2ccc3[nH]c(=O)nc(-c4ccccc4)c3c2)cn1 ?
Marked response: inactive

Exam item: Okay, and CCCCc1ccc(Nc2ccc(Nc3ccc(CCCC)cc3S(=O)(=O)O)c3c2C(=O)c2ccccc2C3=O)c(S(=O)(=O)O)c1 ?
Marked response: inactive

Exam item: Okay, and C=CCn1c(C)nc2cc(Nc3nc(Cl)nc4ccccc34)ccc21 ?
Marked response: inactive

Exam item: Okay, and O=[N+]([O-])c1ccc(C2CC(c3ccccc3)=Nc3ccccc3S2)cc1 (stereo not given) ?
Marked response: inactive

###

# System: 786-0 renal
# method: NCI-60 one-dose screen, 48 h
# condition context: 10 µM unless noted
About 83,000 compounds went through this panel and 20% of them were active in at least one assay; those are over-represented in the sample as a whole. Active and inactive are the calls of the source. The calls were made as follows: active = growth percent below 10; inactive = the rest.
In this exercise, the only acceptable responses are T (active), F (inactive)

Exam item: Assay result, entry O=S(=O)(O)c1ccc(N/N=C/c2ccccc2Cl)cc1 — outcome?
Marked response: F

Exam item: Okay, and COc1ccc(/C=c2\nc3n(-c4ccccc4)c4nc5c6c(sc5c(=N)n4n-3c2=O)CCCC6)cc1 ?
Marked response: F

Exam item: Okay, and CC(=O)[C@@H]1CC[C@]2(COS(=O)(=O)c3ccc(C)cc3)CC[C@]3(C)[C@H](CC[C@@H]4[C@@]5(C)CCCNC(C)(C)[C@@H]5CC[C@]43C)[C@@H]12 ?
Marked response: F

Exam item: Okay, and CCCc1cc2c(=O)c(C(=O)OC)c[nH]c2cc1N(CC)CC ?
Marked response: F

Exam item: Okay, and CC(=O)O[C@]1(C(C)=O)CCC2C3C[C@H](C)C4=CC(=O)CC[C@]4(C)C3CC[C@@]21C (some centres undefined) ?
Marked response: F

Exam item: Okay, and COc1ccc(-c2cc(-c3cc(OC)ccc3OC)nc(SCC(=O)c3ccccc3)c2C#N)cc1 ?
Marked response: F

Exam item: Okay, and CCCCn1c(=O)c2c(nc3n2CCCN3CCc2ccc(OCC(=O)NCCN(CC)CC)cc2)n(CCCC)c1=O ?
Marked response: F

Exam item: Okay, and O=C1N=c2cc3c(cc2=C/C1=C/c1sc(=S)n(CCc2ccc(O)cc2)c1O)OCCO3 ?
Marked response: F

Exam item: Okay, and CCOc1ccccc1-n1c(CN2CCN(C(=O)COc3ccc(CNCCCCCCN4C5CCCC4CC(OC(=O)Nc4cc(C)ccc4OC)C5)cc3)CC2)nc2ccccc2c1=O (centres undefined) ?
Marked response: T

Exam item: Okay, and C=CCn1c(C)nc2cc(Nc3nc(Cl)nc4ccccc34)ccc21 ?
Marked response: F

Exam item: Okay, and Cc1cc(N2CCCC2)nc(NCc2cc(Nc3ccnc4cc(Cl)ccc34)ccc2F)n1 ?
Marked response: T

Exam item: Okay, and COc1ccc(-c2csc(C3=C(O)CN(C(C)C)C3=N)n2)cc1OC ?
Marked response: F

Exam item: Okay, and CCN1CCN(c2cc(C)nc(NCc3cc(Nc4ccnc5cc(Cl)ccc45)ccc3F)n2)CC1 ?
Marked response: F

Exam item: Okay, and NS(=O)(=O)c1ccc(-n2nc(C(=O)N/N=C\c3ccc(F)cc3)cc2-c2ccc(Cl)cc2)cc1 ?
Marked response: F

Exam item: Okay, and Cc1cc(C(=O)c2ccccc2)c(C)c2c1[nH]c1ccc(Cl)cc12 ?
Marked response: F

Exam item: Okay, and CN(C)CC1=NC2SC=C(c3ccccc3)C2C(=O)N1CC#N (centres undefined) ?
Marked response: F

Exam item: Okay, and CCCCCCCC/C=C\CCCCCCCCOc1ccccc1CC(=O)NCC[N+](C)(C)C ?
Marked response: F

Exam item: Okay, and O=C1Nc2ccccc2/C1=C/c1cn(C(=O)c2ccc(Cl)cc2)c2ccccc12 ?
Marked response: F

Exam item: Okay, and O=c1ccn2nc3ccccc3c2[nH]1 ?
Marked response: F
